Reported pIC50 values are given for each entry in this list.
system: SARS-CoV-2 (WK-521); test: microbe, parasite or virus in culture; type: cell-based; conditions: Severe acute respiratory syndrome coronavirus 2, HEK-293T, 72 h; read-out: IC50 (concentration of agent which reduces viral production and replication by 50%)
pIC50: −log10 of the molar value.
MEASURED PARAMETER: pIC50

• CCCCn1c(=O)c2ccc(NC(=O)C(C)N)cc2c2cc(C(O)(C(F)(F)F)C(F)(F)F)ccc21 (centres unmarked) = 6.92
• CCCCn1c(=O)c2ccc(NCCN(C)C)cc2c2cc(C(O)(C(F)(F)F)C(F)(F)F)ccc21 = 5.83
• CCCCn1c(=O)c2ccc(NC(C)=O)cc2c2cc(C(O)(C(F)(F)F)C(F)(F)F)ccc21 = 6.24
• CCCCn1c(=O)c2cc(F)c(NC3CCOC3)cc2c2cc(C(O)(C(F)(F)F)C(F)(F)F)ccc21 (centres unmarked) = 6.19
• CCCCn1c(=O)c2ccc(NCCC)cc2c2cc(C(O)(C(F)(F)F)C(F)(F)F)ccc21 = 5.63
• CCCCn1c(=O)c2ccc(N)cc2c2cc(C(O)(C(F)(F)F)C(F)(F)F)ccc21 = 6.26
• CCCCn1c(=O)c2ccc(NC(=O)CCO)cc2c2cc(C(O)(C(F)(F)F)C(F)(F)F)ccc21 = 7.24
• CCCCn1c(=O)c2ccc(C(CCO)CCO)cc2c2cc(C(O)(C(F)(F)F)C(F)(F)F)ccc21 = 6.27
• CCCCn1c(=O)c2ccc(NCCO)cc2c2cc(C(O)(C(F)(F)F)C(F)(F)F)ccc21 = 7.20
• CCCCn1c(=O)c2ccc(NC(=O)CO)cc2c2cc(C(O)(C(F)(F)F)C(F)(F)F)ccc21 = 6.28
• CCCCn1c(=O)c2ccc(NCCCO)cc2c2cc(C(O)(C(F)(F)F)C(F)(F)F)ccc21 = 5.94
